# Test settings: 333.15 K; 10000 kPa; Liquid; Vibrating tube method
Outcome measure: mass density (kg/m3)

INSERT INTO measurements (molecule, obs_value) VALUES
  ('CCC[N+]1(C)CCCCC1.O=S(=O)([N-]S(=O)(=O)C(F)(F)F)C(F)(F)F', 1384.8),
  ('CCC[n+]1cccc(C)c1.O=S(=O)([N-]S(=O)(=O)C(F)(F)F)C(F)(F)F', 1421.9),
  ('CCCC[N+]1(C)CCCC1.O=S(=O)([N-]S(=O)(=O)C(F)(F)F)C(F)(F)F', 1378.1),
  ('CCC[N+]1(C)CCCC1.O=S(=O)([N-]S(=O)(=O)C(F)(F)F)C(F)(F)F', 1407),
  ('CCn1cc[n+](C)c1.O=S(=O)([O-])C(F)(F)F [1-ethyl-3-methylimidazolium trifluoromethanesulfonate]', 1349.2);
